The binders listed here are annotated with their EC50.
# System name: T1, human epidermal growth factor receptor 3 (HER3) (human, UniProt P21860 20-1342)
# T1 construct: whole, on cells; also called ErbB3; Erbb3
# Assay: flow cytometry on NCI-H358 cells
All answers are understood in µg/mL, so give the number only.

Recorded EC50, per entry:
| Binder | Measured metric | Recorded number |
| --- | --- | --- |
| ADC 47A3-A-07-A (antibody, human IgG1, kappa, V domains shown, drug-linker A-07-A on a cysteine sulfhydryl group; LC-DAR1 ratio 0.820; drug-linker A-07-A on cysteine sulfhydryl groups after TCEP reduction; HC-DAR3 ratio 0.760, HC-DAR0 ratio 0.222) VH: EVQLQESGPGLVKPSQTLSLTCAISGDSVSSSQSTWNWIRQSPSRGLEWLGRTFYRSRWYNDYALSMKSRITINPDTSKNQFSLQLNPVTPEDTAVYYCARDTYYYGSGGFDYWGQGSRVTVSS VL: DIQMTQSPSTLSASVGDRVTITCRASQSLSRWLAWYQQKPEKAPKLLIYKASSLESGVPSRFSGSGSGTEFTLTISTLQPDDFATYYCQQYKNYYSFGQGTKLEIKR | EC50 | 0.158 |
| ADC 100H7-A-07-A (antibody, human IgG1, kappa, V domains shown, drug-linker A-07-A on a cysteine sulfhydryl group; LC-DAR1 ratio 1.000; drug-linker A-07-A on cysteine sulfhydryl groups after TCEP reduction; mainly 3 per heavy chain (HC-DAR3 ratio 0.989)) VH: EVQLVESGGGVVLPGRSLRLSCAASGFTFSRNAMHWVRQAPGKGLEWVAVIWHDGSNKYYGDSVKGRFTISRDNSKNTLYLQMDSLTAEDTAVYYCARDRGASDFRGQGTLVTVSS VL: DIQMTQSPSTLSASVGDRVTITCRASQSINNWLAWYQQKPEKAPKLLIYKASSLESGVPSRFSGSGSGTEFTLTISSLQPDDFATYYCQQYNSYSLTFGGGTKVEIKR | EC50 | 0.427 |

Consider the additional binder presented here.
Inquiry: Name the recorded EC50 of the binder listed here: ADC 22B6-B-01 (antibody, human IgG1, kappa, V domains shown, drug-linker B-01 on a cysteine sulfhydryl group; LC-DAR1 ratio 0.999; drug-linker B-01 on cysteine sulfhydryl groups after TCEP reduction; mainly 3 per heavy chain (HC-DAR3 ratio 0.933)) VH: EVHLVESGGGVVQPGRSLRLSCATSGFTFRSYGMHWVRQAPGKGLEWVAVIWYDGSNKYYADSVKGRFTISRDISKNTLYLQMNSLTAEDTAVYYCARYYYDSNGYYDAFDIWGQGTMVTVSS VL: DIQLTQSPSFLSASVGDRVTITCRASQGISNYLAWYQQKPGKAPKLLIFAASTLQSGVPSRFSGSGSGAEFTLTISSLEPEDFATYYCQQLNSYPITFGQGTRLEIKR
Reply text: 0.0298
